# TESTED SYSTEM: hA2A (Homo sapiens, UniProt P29274)
# Sequence (P29274 whole entry): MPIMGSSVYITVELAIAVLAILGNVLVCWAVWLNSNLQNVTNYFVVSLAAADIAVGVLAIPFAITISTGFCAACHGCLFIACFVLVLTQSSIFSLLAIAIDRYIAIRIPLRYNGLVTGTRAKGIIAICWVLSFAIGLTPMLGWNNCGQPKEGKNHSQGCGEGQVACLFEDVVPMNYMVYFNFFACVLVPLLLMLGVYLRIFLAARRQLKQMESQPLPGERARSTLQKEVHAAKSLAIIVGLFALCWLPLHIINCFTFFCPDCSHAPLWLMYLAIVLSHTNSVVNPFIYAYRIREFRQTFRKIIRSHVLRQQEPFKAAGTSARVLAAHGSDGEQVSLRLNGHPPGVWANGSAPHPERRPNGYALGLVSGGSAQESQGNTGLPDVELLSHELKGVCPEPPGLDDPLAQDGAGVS
# METHOD NOTES: Radioligand competition binding, [3H]NECA, hA2A in CHO cells
# CONDITION INFO: [3H]NECA 10 nM
pKi: −log10 of the molar value.
ENDPOINT NAME: pKi

>  <MOLECULE SMILES>
COc1ccc(C(=O)c2cc3ccccc3oc2=O)cc1OC

>  <TESTED SYSTEM>
hA2A (Homo sapiens, UniProt P29274)

>  <RESULT>
< 4.00

$$$$

Now, please, on to the next molecule.
Enter recorded pKi with hA2A (Homo sapiens, UniProt P29274) for `COc1ccc2oc(=O)c(C(=O)c3ccc(OC)c(OC)c3)cc2c1` here. < 4.00

* * *

Please consider the recorded Ki for hA1 (Homo sapiens, UniProt P30542) in what follows.

>  <MOLECULE>
O=C(c1ccc(O)c(O)c1)c1cc2c(O)cc(O)cc2oc1=O [Compound 7]

>  <TESTED SYSTEM>
hA1 (Homo sapiens, UniProt P30542)
Sequence (P30542 whole entry): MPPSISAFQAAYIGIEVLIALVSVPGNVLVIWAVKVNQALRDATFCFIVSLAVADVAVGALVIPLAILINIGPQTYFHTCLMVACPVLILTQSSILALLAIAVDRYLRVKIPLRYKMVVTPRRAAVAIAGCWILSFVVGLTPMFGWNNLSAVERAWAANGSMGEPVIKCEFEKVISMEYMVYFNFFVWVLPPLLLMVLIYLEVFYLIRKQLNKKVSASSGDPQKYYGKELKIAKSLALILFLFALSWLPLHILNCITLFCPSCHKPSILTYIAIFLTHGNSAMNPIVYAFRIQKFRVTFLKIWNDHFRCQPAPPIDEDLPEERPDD

>  <Ki>
17.7 µM

$$$$
>  <MOLECULE>
COc1ccc(C(=O)c2cc3c(OC)cc(OC)cc3oc2=O)cc1 [Compound 4]

>  <TESTED SYSTEM>
hA1 (Homo sapiens, UniProt P30542)

>  <Ki>
> 100 µM

$$$$
>  <MOLECULE>
COc1cc(OC)c2cc(C(=O)c3ccc(OC)c(OC)c3)c(=O)oc2c1 [Compound 3]

>  <TESTED SYSTEM>
hA1 (Homo sapiens, UniProt P30542)

>  <Ki>
> 30 µM

$$$$

Enter recorded Ki with hA1 (Homo sapiens, UniProt P30542) for O=C(c1ccc(O)c(O)c1)c1cc2ccccc2oc1=O [Compound 5] here. 39.5 µM

Enter recorded Ki with hA1 (Homo sapiens, UniProt P30542) for COc1ccc(C(=O)c2cc3ccccc3oc2=O)cc1OC [Compound 1, 3-(3′,4′-Dimethoxybenzoyl)coumarin] here. > 100 µM

Enter recorded Ki with hA1 (Homo sapiens, UniProt P30542) for COc1ccc2oc(=O)c(C(=O)c3ccc(OC)c(OC)c3)cc2c1 [Compound 2] here. > 100 µM

Enter recorded Ki with hA1 (Homo sapiens, UniProt P30542) for O=C(c1ccc(O)cc1)c1cc2c(O)cc(O)cc2oc1=O [Compound 8] here. 29.1 µM

Enter recorded Ki with hA1 (Homo sapiens, UniProt P30542) for O=C(c1ccc(O)c(O)c1)c1cc2cc(O)ccc2oc1=O [Compound 6] here. 54 µM

* * *

Entries and their Ki
# TESTED SYSTEM: hA3 (Homo sapiens, UniProt P0DMS8)
# Construct: expressed in transfected cells; host or cells: CHO cells (stably transfected)
# Sequence (P0DMS8 whole entry): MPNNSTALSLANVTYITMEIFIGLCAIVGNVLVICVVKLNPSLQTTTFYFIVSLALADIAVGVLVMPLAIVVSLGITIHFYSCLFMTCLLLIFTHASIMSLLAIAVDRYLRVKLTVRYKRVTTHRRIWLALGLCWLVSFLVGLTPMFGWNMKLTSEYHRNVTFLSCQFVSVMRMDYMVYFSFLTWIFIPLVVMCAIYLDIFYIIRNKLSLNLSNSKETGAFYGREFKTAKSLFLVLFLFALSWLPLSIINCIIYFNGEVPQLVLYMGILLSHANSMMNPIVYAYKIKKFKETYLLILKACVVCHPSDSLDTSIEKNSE
# METHOD NOTES: Radioligand competition binding, [3H]HEMADO, hA3 in CHO cells
# CONDITION INFO: [3H]HEMADO 1 nM, geometric mean of 3 experiments (95% CI)
# Method: (5′-N-ethylcarboxamidoadenosine) to hA2A; and specific binding of [^3H]HEMADO (2-(1-hexynyl)-N^6-methyladenosine) to hA3. […] Due to the lack of a suitable radioligand for the hA2B receptor, the potency of antagonists at the hA2B receptor was determined by inhibition of NECA-stimulated adenylyl cyclase activity with increasing concentrations of antagonist. […]

>  <MOLECULE>
COc1ccc(C(=O)c2cc3ccccc3oc2=O)cc1OC [Compound 1, 3-(3′,4′-Dimethoxybenzoyl)coumarin]

>  <Ki>
> 100 µM

$$$$
>  <MOLECULE>
COc1ccc(C(=O)c2cc3c(OC)cc(OC)cc3oc2=O)cc1 [Compound 4]

>  <Ki>
2.49 µM

$$$$
>  <MOLECULE>
O=C(c1ccc(O)cc1)c1cc2c(O)cc(O)cc2oc1=O [Compound 8]

>  <Ki>
> 60 µM

$$$$
>  <MOLECULE>
O=C(c1ccc(O)c(O)c1)c1cc2c(O)cc(O)cc2oc1=O [Compound 7]

>  <Ki>
> 30 µM

$$$$
>  <MOLECULE>
COc1cc(OC)c2cc(C(=O)c3ccc(OC)c(OC)c3)c(=O)oc2c1 [Compound 3]

>  <Ki>
9.03 µM

$$$$

Enter recorded Ki with hA3 (Homo sapiens, UniProt P0DMS8) for O=C(c1ccc(O)c(O)c1)c1cc2ccccc2oc1=O [Compound 5] here. 34.5 µM

Enter recorded Ki with hA3 (Homo sapiens, UniProt P0DMS8) for COc1ccc2oc(=O)c(C(=O)c3ccc(OC)c(OC)c3)cc2c1 [Compound 2] here. > 100 µM

Enter recorded Ki with hA3 (Homo sapiens, UniProt P0DMS8) for O=C(c1ccc(O)c(O)c1)c1cc2cc(O)ccc2oc1=O [Compound 6] here. > 60 µM

* * *

ENDPOINT NAME: melting point

>  <MOLECULE SMILES>
COc1cc(OC)c2cc(C(=O)c3ccc(OC)c(OC)c3)c(=O)oc2c1

>  <RESULT>
210 to 211 °C

$$$$
>  <MOLECULE SMILES>
O=C(c1ccc(O)cc1)c1cc2c(O)cc(O)cc2oc1=O

>  <RESULT>
290 to 292 °C

$$$$
>  <MOLECULE SMILES>
COc1ccc(C(=O)c2cc3ccccc3oc2=O)cc1OC

>  <RESULT>
190 to 191 °C

$$$$
>  <MOLECULE SMILES>
COc1ccc2oc(=O)c(C(=O)c3ccc(OC)c(OC)c3)cc2c1

>  <RESULT>
202 to 203 °C

$$$$

Now, please, on to the next compound.
Entry `COc1ccc(C(=O)c2cc3c(OC)cc(OC)cc3oc2=O)cc1` needs its melting point filled in; supply it. 174 to 175 °C

The values you see were collected from paper PMC7571217.
